From: patent US20250186374A1

# Test system: A549 and Vero E6 cells
# settings: Table 1; cell line not given
parameter: CC50 (µM)
State just the number; it will be interpreted in µM.

The compound listed as `O=C(Nc1cc(C(F)(F)F)cc(C(F)(F)F)c1)c1cccc([N+](=O)[O-])c1O` has a reported CC50 of 10.2

The compound listed as `O=C(Nc1ccc(C(F)(F)F)cc1Cl)c1cccc([N+](=O)[O-])c1O` has a reported CC50 of 10.1

The compound listed as Cl.NCCOc1ccc(Cl)cc1C(=O)NCC(=O)Nc1ccc([N+](=O)[O-])cc1Cl [JMX0286, hydrochloride] has a reported CC50 of 3.78

The compound listed as `O=C(Nc1cc(F)cc(C(F)(F)F)c1)c1cccc([N+](=O)[O-])c1O` has a reported CC50 of 11.7

###

# assay target: SARS-CoV-2 3CLpro (Severe acute respiratory syndrome coronavirus 2)
# measurement protocol: Surface plasmon resonance binding to immobilized 3CLpro
# settings: 0.164-100 μM, 25° C.; read-out: KD (SPR, steady-state affinity model)
parameter: Kd (µM)
State just the number; it will be interpreted in µM.

The compound listed as Cl.NCCOc1ccc(Cl)cc1C(=O)NCC(=O)Nc1ccc([N+](=O)[O-])cc1Cl [JMX0286, hydrochloride] has a reported Kd of 9.8

###

# System: A549 and Vero E6 cells
parameter: CC50 (µM)
State just the number; it will be interpreted in µM.

Here `CC1(Nc2ccc(NC(=O)c3cc(Cl)ccc3O)c(Cl)c2)CCCC1` was tested on A549 and Vero E6 cells, and its CC50 came to 11.5

###

# measurement protocol: in vitro
Threshold check on CC50 at 48 h: strictly below 7 µM is true (1); on or above 7 µM is false (0).

Ask: Hello, I'm reviewing records and need to know if CC50 at 48 h of O=C(NC(Cc1ccccc1)C(=O)Nc1ccc([N+](=O)[O-])cc1Cl)c1cc(Cl)ccc1O (centres unmarked) is below 7 µM. Could you check?
Reply: true (1)

Ask: Hello, I'm reviewing records and need to know if CC50 at 48 h of `CC(C)[C@H](NC(=O)c1cc(Cl)ccc1O)C(=O)Nc1ccc([N+](=O)[O-])cc1Cl` is below 7 µM. Could you check?
Reply: false (0)

Ask: Hello, I'm reviewing records and need to know if CC50 at 48 h of `C[C@H](NC(=O)c1cc(Cl)ccc1O)C(=O)Nc1ccc([N+](=O)[O-])cc1Cl` is below 7 µM. Could you check?
Reply: false (0)

Ask: Hello, I'm reviewing records and need to know if CC50 at 48 h of `O=C(Nc1cc(C(F)(F)F)cc(C(F)(F)F)c1)c1cc(Cl)ccc1O` is below 7 µM. Could you check?
Reply: true (1)

Ask: Hello, I'm reviewing records and need to know if CC50 at 48 h of `CC(C)[C@H](NC(=O)c1cc(Cl)ccc1O)C(=O)Nc1ccc(F)c(F)c1` is below 7 µM. Could you check?
Reply: false (0)

Ask: Hello, I'm reviewing records and need to know if CC50 at 48 h of `O=C(Nc1ccc([N+](=O)[O-])cc1Cl)c1cccc([N+](=O)[O-])c1O` is below 7 µM. Could you check?
Reply: false (0)

Ask: Hello, I'm reviewing records and need to know if CC50 at 48 h of `CC(C)C[C@H](NC(=O)c1cc(Cl)ccc1O)C(=O)Nc1ccc([N+](=O)[O-])cc1Cl` is below 7 µM. Could you check?
Reply: false (0)

Ask: Hello, I'm reviewing records and need to know if CC50 at 48 h of `O=C(Nc1ccc(F)c(F)c1)c1cc(Cl)ccc1O` is below 7 µM. Could you check?
Reply: true (1)

Ask: Hello, I'm reviewing records and need to know if CC50 at 48 h of `CC(C)[C@H](NC(=O)c1cc(Cl)ccc1O)C(=O)Nc1cc(F)cc(C(F)(F)F)c1` is below 7 µM. Could you check?
Reply: false (0)

Ask: Hello, I'm reviewing records and need to know if CC50 at 48 h of CCC(C)[C@H](NC(=O)c1cc(Cl)ccc1O)C(=O)Nc1ccc([N+](=O)[O-])cc1Cl (some centres unmarked) is below 7 µM. Could you check?
Reply: true (1)

Ask: Hello, I'm reviewing records and need to know if CC50 at 48 h of `O=C(Nc1cc(F)cc(C(F)(F)F)c1)c1ccc(Cl)cc1O` is below 7 µM. Could you check?
Reply: true (1)

Ask: Hello, I'm reviewing records and need to know if CC50 at 48 h of `CC(C)[C@H](NC(=O)c1cc(Cl)ccc1O)C(=O)Nc1ccc(C(F)(F)F)cc1Cl` is below 7 µM. Could you check?
Reply: false (0)

Ask: Hello, I'm reviewing records and need to know if CC50 at 48 h of `O=C(Nc1cc(F)cc(C(F)(F)F)c1)c1cc(Cl)ccc1O` is below 7 µM. Could you check?
Reply: true (1)
